TARGET_UNDER_TEST: T1, TNFR1 (Homo sapiens, UniProt P19438)
T1 chain: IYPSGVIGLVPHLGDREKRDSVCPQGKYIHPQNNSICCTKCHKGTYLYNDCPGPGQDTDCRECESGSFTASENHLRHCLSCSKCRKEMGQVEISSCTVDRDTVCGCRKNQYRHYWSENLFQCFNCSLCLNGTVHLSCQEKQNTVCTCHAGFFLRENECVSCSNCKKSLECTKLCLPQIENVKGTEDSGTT
TEST_DETAILS: yeast display SC50
RESULT_TYPE: apparent Kd (screen) (nM)

Please review the following examples before continuing.
L75G (designed binder) SMEEEVEKAAKEYEKKKKEAIEKHLEKLKAKDKEAAERFLKELEEAAKEYAKDEAKTMSEEEAKRRAKKYKEKVGLSELSEEEQKEIKEAEEKLVRTILKYVEEAAK :: 0.368
E86P (designed binder) SMEEEVEKAAKEYEKKKKEAIEKHLEKLKAKDKEAAERFLKELEEAAKEYAKDEAKTMSEEEAKRRAKKYKEKVLLSELSEEEQKPIKEAEEKLVRTILKYVEEAAK :: 12.5
A47I (designed binder) SMEEEVEKAAKEYEKKKKEAIEKHLEKLKAKDKEAAERFLKELEEAIKEYAKDEAKTMSEEEAKRRAKKYKEKVLLSELSEEEQKEIKEAEEKLVRTILKYVEEAAK :: 0.49
L40Y (designed binder) SMEEEVEKAAKEYEKKKKEAIEKHLEKLKAKDKEAAERFYKELEEAAKEYAKDEAKTMSEEEAKRRAKKYKEKVLLSELSEEEQKEIKEAEEKLVRTILKYVEEAAK :: 0.869

(P) R66I (designed binder) SMEEEVEKAAKEYEKKKKEAIEKHLEKLKAKDKEAAERFLKELEEAAKEYAKDEAKTMSEEEAKRIAKKYKEKVLLSELSEEEQKEIKEAEEKLVRTILKYVEEAAK
(Q) E54P (designed binder) SMEEEVEKAAKEYEKKKKEAIEKHLEKLKAKDKEAAERFLKELEEAAKEYAKDPAKTMSEEEAKRRAKKYKEKVLLSELSEEEQKEIKEAEEKLVRTILKYVEEAAK
(R) E37D (designed binder) SMEEEVEKAAKEYEKKKKEAIEKHLEKLKAKDKEAADRFLKELEEAAKEYAKDEAKTMSEEEAKRRAKKYKEKVLLSELSEEEQKEIKEAEEKLVRTILKYVEEAAK
(S) E81G (designed binder) SMEEEVEKAAKEYEKKKKEAIEKHLEKLKAKDKEAAERFLKELEEAAKEYAKDEAKTMSEEEAKRRAKKYKEKVLLSELSGEEQKEIKEAEEKLVRTILKYVEEAAK
Query :: Exam item: list the entries in increasing order of apparent Kd (screen). A ranking is expressed here by listing the labels in the requested order.
Result :: R, S, Q, P

Data origin: paper PMC12416549
